# METHOD: reversal of MRP1-mediated doxorubicin resistance, pilot screen, H69AR cells, doxorubicin co-treatment (AID 601)
# TEST_CONTEXT: H69AR cells, CellTiter-Glo, 72 h; compound alone cytotoxicity; at 10 µM
Quick reference for viability among some molecules
ASSAY_READOUT: viability (%)

1) CCn1c(SCC(=O)Nc2ccc3c(c2)OCO3)nc2c(c1=O)SC(C)C2 (stereo not given)	84.7
2) COc1ccc(N2C(=O)C3CCCN3C2c2ccc(F)cc2)cc1Cl (stereo not given)	87.4
3) CCn1c(SCc2nc(-c3cccs3)no2)nnc1-c1c[nH]c2ccccc12	78.8
4) Cn1c(C(=O)OC(C(=O)NC2CCCC2)c2cccnc2)cc2sccc21 (stereo not given)	89.1
5) CC(=O)c1c(OCC(=O)O)ccc2c(C)cc(=O)oc12	91.8
6) COc1ccc(-c2nnn(CCc3nn[nH]n3)n2)cc1OC	95.5
7) Cc1ccc(-c2nnnn2CS(=O)(=O)c2ccccc2)cc1	96.4
8) Cc1ccc(S(=O)(=O)N2CCN(C(=O)CSC3CCCC3)CC2)c(C)c1	81.6
9) COc1ccc(N2CCN(Cc3cc(=O)oc4cc(C)c(Cl)c(C)c34)CC2)cc1	74.8
10) Cc1cc(C)n(-c2nc3sc4c(c3c3nnc(SCC(N)=O)n23)CC(C)(C)OC4)n1	90.7

====

# METHOD: 384-well plate pilot, post-Golgi transport modulator project, inhibition of yeast transport mutant growth (AID 636)
# TEST_CONTEXT: absorbance 615 nm, about 18 h, stronger effect = higher value
ASSAY_READOUT: inhibition (%)

1. CCOC(=O)C1CCCN(S(=O)(=O)c2cccs2)C1 (centres undefined)	0.66
2. COC(=O)c1ccc(Oc2nc(NC(C)C)nc(N(C)C)n2)cc1	-5.14
3. COCCn1c(C)c(C(=O)O)sc1=S	0.79
4. COc1ccccc1NS(=O)(=O)c1ccc(OC)c(OC)c1	-6.62
5. CCOC(=O)CC(=O)CSc1nc(-c2cccnc2)ccc1C#N	-3.97
6. COC(=O)c1cc(=O)n2c(-c3ccc(OC)cc3)csc2n1	-4.8
7. Cc1ccc(-n2c(-c3ccncc3)nnc2-c2cccs2)cc1	-6.53
8. N#Cc1c(-c2ccc3c(c2)OCO3)csc1N	3.29
9. Cc1ccc2c(c1)nnn2C1CCN(C(=O)NC23CC4CC(CC(C4)C2)C3)CC1	-8.08
10. CN1/C(=C\C(=O)Nc2cccnc2)c2ccccc2CC1(C)C	-4.4
11. CCOc1ccc(OCc2cccc(C(=O)N3CCOCC3)c2)cc1	-5.87
12. O=C(CCn1c(=O)sc2ccccc21)NCc1ccc2c(c1)OCO2	-0.81
13. CN(CCCC(=O)Nc1ccncc1)S(=O)(=O)c1ccc(Cl)cc1	0.65
14. CC(C)NCC(O)COc1cccc2[nH]ccc12 (centres undefined)	-3.25
15. COCc1[nH]nc2c1C(c1cc(OC)c(O)c(OC)c1)C(C#N)=C(N)O2 (centres undefined)	-10.3
16. CC1(C)CC(=O)C(C=NC(CCC(N)=O)C(=O)O)=C(O)C1 (centres undefined)	-8.22
17. O=C(COC(=O)Cc1cccc(C(F)(F)F)c1)NCC1CCCO1 (centres undefined)	-5.13
18. N#CC1=C(N)n2c(s/c(=C\c3ccco3)c2=O)=C(C#N)C1c1ccco1 (centres undefined)	0.13
19. O=C(NCc1cccs1)C1CC(c2ccccc2O)=NO1 (centres undefined)	-3.73
20. O=C(CCCCn1c(=O)[nH]c2ccsc2c1=O)NCc1cccnc1	-1.18
21. COc1ccc(C(=O)N2CCOCC2)cc1Br	-2.24
22. COc1ccc(-c2ccc(-c3noc(-c4ccccc4)n3)c(OC)n2)cc1	-8.51
23. CCN(C(C)=O)c1nnc(CSc2nc3ccccc3s2)s1	-0.52
24. CC(N)C12CC3CC(C1)CC(C(C)N)(C3)C2 (centres undefined)	-3.6
25. O=C(Cc1nc2ccccc2s1)c1ccc(O)cc1O	-4.53
26. CN1CCN(C(=O)c2ccccc2N(Cc2ccccc2)S(C)(=O)=O)CC1	-6.1
27. COc1cc(NC(=O)c2ccco2)c(OC)cc1NC(=O)CCC(=O)Nc1cc(C)cc(C)c1	-6.58
28. CCCn1c(SCC(=O)Nc2ccccc2C(=O)OCC)nc2c1c(=O)n(C)c(=O)n2C	-8
29. Cc1nn(C)cc1/C=N/O	-7.47
30. CCOc1ccccc1N1CCN(C(=O)c2ccncc2)CC1	-2.99
31. CN(C)c1ccc(NC(=O)c2ccncc2)c2ccccc12	-7.43
32. Cc1cccc(NC(=O)c2ccc(S(=O)(=O)N(C)C)cc2)n1	-0.8
33. Cc1ccc(S(=O)(=O)N2CCN(C(=O)c3cc(=O)[nH]c4ccccc34)CC2)c(C)c1	-9.04
34. Cc1onc(-c2ccccc2)c1C(=O)Nc1sc2c(c1C(N)=O)CCC2	-1.71
